# procedure-details: AUC in Sprague-Dawley rat at 10 mg/kg, po
# Assay type: ADME, organism-based
# Parameters: dose 10 mg/kg, route oral
# condition-parameters: plasma
measured-property: AUC (ng·h/mL)
Lab book: enter the figure in ng·h/mL, no units written.

# input Can you share its AUC? I mean this compound: "Cc1c(N2CCCC2=O)cccc1S(=O)(=O)N[C@@H](CNC(=O)c1ccc(Cl)s1)C(=O)N1CCN(C)CC1.Cl"
# output 360
